B1: LINE1-full (parent)
chain: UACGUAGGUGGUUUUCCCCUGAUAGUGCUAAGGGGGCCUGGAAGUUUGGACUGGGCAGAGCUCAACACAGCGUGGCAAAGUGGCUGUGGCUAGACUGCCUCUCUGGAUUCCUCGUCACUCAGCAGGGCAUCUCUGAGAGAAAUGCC

Variants of: B1
Assay: self-cleavage, relative activity (ratio to wild type); higher = more cleavage; in vitro, sequencing; the parent is a self-cleaving ribozyme
The following ranges of self-cleavage define the classes used here: lo (below 0.3), mid (0.3 to below 1), hi (1 or more)

Worked set:
| MUTATION_LIST | LABEL_CLASS |
| --- | --- |
| U81C U132C | hi |
| U29C A117G | mid |
| U15C U109G | mid |
| U20C G32U | mid |

Which class is correct for the following variant? C28U U102C
lo
